Source listed as patent US12162820B2.

# system.tested: HDAC1 (Homo sapiens, UniProt Q13547)
# Construct: purchased Enzo Life Sciences
# Sequence (Q13547 whole entry): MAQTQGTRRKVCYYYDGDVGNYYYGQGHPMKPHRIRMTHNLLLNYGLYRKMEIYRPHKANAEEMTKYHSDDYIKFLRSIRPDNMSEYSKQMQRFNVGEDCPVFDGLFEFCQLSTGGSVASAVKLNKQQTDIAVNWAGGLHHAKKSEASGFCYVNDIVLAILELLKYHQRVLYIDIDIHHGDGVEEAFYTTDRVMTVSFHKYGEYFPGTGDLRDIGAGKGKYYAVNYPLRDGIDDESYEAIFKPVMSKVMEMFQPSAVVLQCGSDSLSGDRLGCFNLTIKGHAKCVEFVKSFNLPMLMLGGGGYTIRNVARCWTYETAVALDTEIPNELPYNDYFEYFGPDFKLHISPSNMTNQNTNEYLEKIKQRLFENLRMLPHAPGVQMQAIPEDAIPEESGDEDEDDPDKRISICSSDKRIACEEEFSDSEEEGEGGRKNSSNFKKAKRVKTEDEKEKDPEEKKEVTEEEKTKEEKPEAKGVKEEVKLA
# method.summary: HDAC Inhibition Screening Assay (FLUOR DE LYS Fluorimetric Drug Discovery Kit), HDAC1
# Assay type: biochemical
# settings: 2 μM compound
experimental.endpoint: inhibition at 2 µM

Incoming: Would you mind telling me what inhibition at 2 µM value was observed for O=C(/C=C/c1ccc2c(c1)CCC2NC(=O)CCCCCCC(=O)NO)Nc1cc(Cl)cc(Cl)c1 (stereo not shown) ?
Outgoing: < 50%

Incoming: Would you mind telling me what inhibition at 2 µM value was observed for COc1ccc(S(=O)(=O)NC2CCc3cc(/C=C/C(=O)Nc4ccc(F)cc4N)ccc32)cc1 (stereo not shown) ?
Outgoing: < 50%

Incoming: Would you mind telling me what inhibition at 2 µM value was observed for O=C(/C=C/c1ccc2c(c1)CCC2NS(=O)(=O)c1cc(C(F)(F)F)cc(C(F)(F)F)c1)NO (stereo not shown) ?
Outgoing: < 50%

Incoming: Would you mind telling me what inhibition at 2 µM value was observed for `O=C(/C=C/c1ccc2c(c1)CC/C(=C\c1cc(C(F)(F)F)cc(C(F)(F)F)c1)C2=O)NCCCCCC(=O)NO` ?
Outgoing: 50 to 80%

Incoming: Would you mind telling me what inhibition at 2 µM value was observed for O=C(/C=C/c1ccc2c(c1)CCCC2OCc1cc(C(F)(F)F)cc(C(F)(F)F)c1)NO (stereo not shown) ?
Outgoing: < 50%

Incoming: Would you mind telling me what inhibition at 2 µM value was observed for COc1ccc2c(c1)CCC2NC(=O)CCCCCCC(=O)NO (stereo not shown) ?
Outgoing: 50 to 80%

Incoming: Would you mind telling me what inhibition at 2 µM value was observed for CCN(CC)c1ccc(C(=O)NC2CCc3cc(/C=C/C(=O)NCCCCCC(=O)NO)ccc32)cc1 (stereo not shown) ?
Outgoing: > 80%

Incoming: Would you mind telling me what inhibition at 2 µM value was observed for O=C(/C=C/c1ccc2c(c1)CCC2NCCc1cc(C(F)(F)F)cc(C(F)(F)F)c1)NO (stereo not shown) ?
Outgoing: > 80%

Incoming: Would you mind telling me what inhibition at 2 µM value was observed for COc1ccc(CCNC2CCc3cc(/C=C/C(=O)Nc4ccc(F)cc4N)ccc32)cc1 (stereo not shown) ?
Outgoing: < 50%

Incoming: Would you mind telling me what inhibition at 2 µM value was observed for Nc1cc(F)ccc1NC(=O)c1ccc(COc2ccc3c(c2)CC(Cc2cc(C(F)(F)F)cc(C(F)(F)F)c2)C3=O)cc1 (stereo not shown) ?
Outgoing: < 50%

Incoming: Would you mind telling me what inhibition at 2 µM value was observed for Nc1cc(F)ccc1NC(=O)/C=C/c1ccc2c(c1)CCC2NCCc1c[nH]c2ccccc12 (stereo not shown) ?
Outgoing: < 50%

Incoming: Would you mind telling me what inhibition at 2 µM value was observed for `O=C(/C=C/c1ccc(COc2ccc3c(c2)CCCC3=O)cc1)NO` ?
Outgoing: 50 to 80%

Incoming: Would you mind telling me what inhibition at 2 µM value was observed for CN(C)c1ccc(C(=O)NC2CCc3cc(/C=C/C(=O)NO)ccc32)cc1 (stereo not shown) ?
Outgoing: > 80%

Incoming: Would you mind telling me what inhibition at 2 µM value was observed for Nc1cc(F)ccc1NC(=O)/C=C/c1ccc2c(c1)CCC2NC(=O)c1cc(C(F)(F)F)cc(C(F)(F)F)c1 (stereo not shown) ?
Outgoing: < 50%

Incoming: Would you mind telling me what inhibition at 2 µM value was observed for `Nc1cc(F)ccc1NC(=O)CCCCC(=O)Nc1ccc2c(c1)CC/C(=C\c1cc(C(F)(F)F)cc(C(F)(F)F)c1)C2=O` ?
Outgoing: < 50%

Incoming: Would you mind telling me what inhibition at 2 µM value was observed for Nc1cc(F)ccc1NC(=O)/C=C/c1ccc2c(c1)CCC2NS(=O)(=O)c1cc(C(F)(F)F)cc(C(F)(F)F)c1 (stereo not shown) ?
Outgoing: < 50%

Incoming: Would you mind telling me what inhibition at 2 µM value was observed for O=C(CCCCCCC(=O)Nc1ccc2c(c1)CCC(Cc1cc(C(F)(F)F)cc(C(F)(F)F)c1)C2=O)NO (stereo not shown) ?
Outgoing: < 50%

Incoming: Would you mind telling me what inhibition at 2 µM value was observed for `O=C(CCCCCCC(=O)Nc1ccc2c(c1)CCCC2=O)NO` ?
Outgoing: > 80%

Incoming: Would you mind telling me what inhibition at 2 µM value was observed for CCN(CC)c1ccc(C(=O)NC2CCc3cc(/C=C/C(=O)NCCCCCC(=O)Nc4ccc(F)cc4N)ccc32)cc1 (stereo not shown) ?
Outgoing: < 50%

Incoming: Would you mind telling me what inhibition at 2 µM value was observed for O=C(CCCCCN(CC(=O)NC1CCc2ccccc21)CC(=O)NC1CCc2ccccc21)NO (stereo not shown) ?
Outgoing: > 80%

Incoming: Would you mind telling me what inhibition at 2 µM value was observed for Cc1[nH]c2ccccc2c1CCNC1CCc2cc(/C=C/C(=O)Nc3ccc(F)cc3N)ccc21 (stereo not shown) ?
Outgoing: 50 to 80%

Incoming: Would you mind telling me what inhibition at 2 µM value was observed for `O=C(CCCCCC(=O)Nc1ccc2c(c1)CC/C(=C\c1cc(C(F)(F)F)cc(C(F)(F)F)c1)C2=O)NO` ?
Outgoing: < 50%

Incoming: Would you mind telling me what inhibition at 2 µM value was observed for Nc1cc(F)ccc1NC(=O)/C=C/c1ccc2c(c1)CCC2NCCC(=O)Nc1cc(C(F)(F)F)cc(C(F)(F)F)c1 (stereo not shown) ?
Outgoing: < 50%

Incoming: Would you mind telling me what inhibition at 2 µM value was observed for `O=C(CCCCCNC(=O)c1ccc2c(c1)CC/C(=C\c1cc(C(F)(F)F)cc(C(F)(F)F)c1)C2=O)NO` ?
Outgoing: 50 to 80%

Incoming: Would you mind telling me what inhibition at 2 µM value was observed for Cc1[nH]c2ccccc2c1CCNC1CCc2cc(/C=C/C(=O)NO)ccc21 (stereo not shown) ?
Outgoing: > 80%

Incoming: Would you mind telling me what inhibition at 2 µM value was observed for `O=C(CCCCCCC(=O)Nc1ccc2c(c1)CCC/C2=N\O)NO` ?
Outgoing: > 80%

Incoming: Would you mind telling me what inhibition at 2 µM value was observed for O=C(/C=C/c1ccc2c(c1)CCC2NCc1cc(C(F)(F)F)cc(C(F)(F)F)c1)NO (stereo not shown) ?
Outgoing: 50 to 80%

Incoming: Would you mind telling me what inhibition at 2 µM value was observed for CCN(CC)c1ccc(C(=O)NC2CCc3cc(/C=C/C(=O)Nc4ccc(F)cc4N)ccc32)cc1 (stereo not shown) ?
Outgoing: < 50%

Incoming: Would you mind telling me what inhibition at 2 µM value was observed for Nc1cc(F)ccc1NC(=O)CCCCCCC(=O)NC1CCc2cc(Br)ccc21 (stereo not shown) ?
Outgoing: < 50%

Incoming: Would you mind telling me what inhibition at 2 µM value was observed for O=C(CCCCCCC(=O)NC1CCCc2cc(Br)ccc21)NO (stereo not shown) ?
Outgoing: < 50%

Incoming: Would you mind telling me what inhibition at 2 µM value was observed for O=C(/C=C/c1ccc2c(c1)CCC2NC(=O)c1ccc(F)cc1)NCCCCCC(=O)NO (stereo not shown) ?
Outgoing: > 80%

---

Exercise: state measured inhibition at 4 µM for each of the compounds provided.
# system.tested: ATX (autotaxin) (Homo sapiens, UniProt Q13822)
# Construct: purchased Cayman 10803
# method.summary: Autotaxin Inhibition Screening Assay (choline release from LPC, LPC-CR)
# Assay type: biochemical
# settings: 4 μM compound

Incoming: Would you mind telling me what inhibition at 4 µM value was observed for `O=C(/C=C/c1ccc2c(c1)CC/C(=C\c1cc(C(F)(F)F)cc(C(F)(F)F)c1)C2=O)NCCCCCC(=O)NO` ?
Outgoing: > 80%

Incoming: Would you mind telling me what inhibition at 4 µM value was observed for Nc1cc(F)ccc1NC(=O)/C=C/c1ccc2c(c1)CCC2NCCC(=O)Nc1cc(C(F)(F)F)cc(C(F)(F)F)c1 (stereo not drawn) ?
Outgoing: < 50%

Incoming: Would you mind telling me what inhibition at 4 µM value was observed for `O=C(CCCCCCC(=O)Nc1ccc2c(c1)CC/C(=C\c1cc(C(F)(F)F)cc(C(F)(F)F)c1)C2=O)NO` ?
Outgoing: > 80%

Incoming: Would you mind telling me what inhibition at 4 µM value was observed for CN(C(=O)OCc1cc(C(F)(F)F)cc(C(F)(F)F)c1)C1CCc2ccc(/C=C/C(=O)NO)cc21 (stereo not drawn) ?
Outgoing: > 80%

Incoming: Would you mind telling me what inhibition at 4 µM value was observed for CCN(CC)c1ccc(C(=O)NC2CCc3cc(/C=C/C(=O)Nc4ccc(F)cc4N)ccc32)cc1 (stereo not drawn) ?
Outgoing: < 50%

Incoming: Would you mind telling me what inhibition at 4 µM value was observed for O=C(/C=C/c1ccc2c(c1)CCC2NS(=O)(=O)c1cc(C(F)(F)F)cc(C(F)(F)F)c1)NO (stereo not drawn) ?
Outgoing: < 50%

Incoming: Would you mind telling me what inhibition at 4 µM value was observed for `O=C(/C=C/c1ccc(COc2ccc3c(c2)CCCC3=O)cc1)NO` ?
Outgoing: < 50%

Incoming: Would you mind telling me what inhibition at 4 µM value was observed for O=C(/C=C/c1ccc2c(c1)CCC2OCc1cc(C(F)(F)F)cc(C(F)(F)F)c1)NO (stereo not drawn) ?
Outgoing: < 50%

Incoming: Would you mind telling me what inhibition at 4 µM value was observed for Nc1cc(F)ccc1NC(=O)CCCCCCC(=O)NC1CCc2cc(/C=C/C(=O)Nc3cc(Cl)cc(Cl)c3)ccc21 (stereo not drawn) ?
Outgoing: < 50%

Incoming: Would you mind telling me what inhibition at 4 µM value was observed for CN(C)c1ccc(C(=O)NC2CCc3cc(/C=C/C(=O)NO)ccc32)cc1 (stereo not drawn) ?
Outgoing: < 50%

Incoming: Would you mind telling me what inhibition at 4 µM value was observed for `Nc1cc(F)ccc1NC(=O)CCCCCNC(=O)c1ccc2c(c1)CC/C(=C\c1cc(C(F)(F)F)cc(C(F)(F)F)c1)C2=O` ?
Outgoing: > 80%

Incoming: Would you mind telling me what inhibition at 4 µM value was observed for Cc1[nH]c2ccccc2c1CCNC1CCCc2cc(/C=C/C(=O)NO)ccc21 (stereo not drawn) ?
Outgoing: < 50%

Incoming: Would you mind telling me what inhibition at 4 µM value was observed for O=C(/C=C/c1ccc(COc2ccc3c(c2)CCC(Cc2cc(C(F)(F)F)cc(C(F)(F)F)c2)C3=O)cc1)NO (stereo not drawn) ?
Outgoing: < 50%

Incoming: Would you mind telling me what inhibition at 4 µM value was observed for `O=C(CCCCCCC(=O)Nc1ccc2c(c1)CCC/C2=N\O)NO` ?
Outgoing: < 50%

Incoming: Would you mind telling me what inhibition at 4 µM value was observed for O=C(/C=C/c1ccc2c(c1)CCC2NCCc1c[nH]c2ccccc12)NO (stereo not drawn) ?
Outgoing: < 50%
